ASSAY_EXPLANATION: self-splicing fitness, log relative to wild type (ln ratio); higher = more splicing; Tetrahymena group I intron in knt gene, E. coli kanamycin selection, DiMSum; sequences stand for … in CUCUCU…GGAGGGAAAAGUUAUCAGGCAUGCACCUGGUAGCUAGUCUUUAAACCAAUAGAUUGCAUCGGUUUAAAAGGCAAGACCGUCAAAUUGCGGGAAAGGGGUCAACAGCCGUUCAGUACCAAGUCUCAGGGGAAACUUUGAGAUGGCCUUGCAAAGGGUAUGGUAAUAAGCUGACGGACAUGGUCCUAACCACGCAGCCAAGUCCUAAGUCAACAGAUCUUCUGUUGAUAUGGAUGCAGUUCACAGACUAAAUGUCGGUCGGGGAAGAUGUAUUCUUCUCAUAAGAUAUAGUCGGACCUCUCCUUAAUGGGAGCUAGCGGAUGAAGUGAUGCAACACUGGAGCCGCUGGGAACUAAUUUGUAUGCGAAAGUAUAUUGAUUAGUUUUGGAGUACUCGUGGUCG;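 also: selection with 25 µg/mL kanamycin versus none on LB agar overnight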
CONDITION_DESCRIPTION: 30 °C
Short version: self-splicing fitness (ln) at least -2 is met, less is not met.

RESIDUE_SEQUENCE: AGGAAGCAAUAUUACGGGAG
ASSIGNED_LABEL: not met
//
RESIDUE_SEQUENCE: CGAUAGCAAUAUUACGGCGA
ASSIGNED_LABEL: met
//
RESIDUE_SEQUENCE: UCAUAGCAAUAUUACGGUUU
ASSIGNED_LABEL: not met
//
RESIDUE_SEQUENCE: GGCUAGCAAUAUUACGGAGG
ASSIGNED_LABEL: not met
//
RESIDUE_SEQUENCE: ACAAAGCAAUAUUACGCAGA
ASSIGNED_LABEL: not met
//
RESIDUE_SEQUENCE: UUACAGCAAUAUUACGGAUG
ASSIGNED_LABEL: not met
//
RESIDUE_SEQUENCE: ACACAGCAAUAUUACGCUCA
ASSIGNED_LABEL: met
//
RESIDUE_SEQUENCE: GAUCAGCAAUAUUACGCGCC
ASSIGNED_LABEL: met
//
RESIDUE_SEQUENCE: GGACAGCAAUAUUACGUGGA
ASSIGNED_LABEL: met
//
RESIDUE_SEQUENCE: UAAAAGCAAUAUUACGUAAG
ASSIGNED_LABEL: met
//
RESIDUE_SEQUENCE: AACAAGCAAUAUUACGAGAG
ASSIGNED_LABEL: not met
//
RESIDUE_SEQUENCE: AAUUAGCAAUAUUACGUCAG
ASSIGNED_LABEL: met
//
RESIDUE_SEQUENCE: ACCCAGCAAUAUUACGCUUG
ASSIGNED_LABEL: not met
//
RESIDUE_SEQUENCE: CGACAGCAAUAUUACGCAAA
ASSIGNED_LABEL: not met
//
RESIDUE_SEQUENCE: UCCUAGCAAUAUUACGUGUA
ASSIGNED_LABEL: not met
//
RESIDUE_SEQUENCE: AUAAAGCAAUAUUACGACGC
ASSIGNED_LABEL: met
